Data credit: ChEMBL document CHEMBL2321831

Assay: AUC (0 to 8 hrs) in Crj:CD rat serum at 5 mg/kg, po
Assay type: ADME, organism-based
Set-up: time < 8 hr, dose 5 mg/kg, route oral
experimentalReadout: AUC(0-t) at 8 h
State the result as a value with its unit after it.

Worked set:
compound	result
COc1c(N2C[C@@H](N)C3(CC3)C2)c(F)cc2c(=O)c(C(=O)O)cn([C@@H]3C[C@@H]3F)c12.Cl.O	1590 ng·h/mL
COc1c(N2CC3(CC3)[C@](C)(N)C2)c(F)cc2c(=O)c(C(=O)O)cn([C@@H]3C[C@@H]3F)c12	3080 ng·h/mL

Now examine the next entry.
Could you share which AUC(0-t) at 8 h value was measured for C[C@H]1COc2c(N3CCN(C)CC3)c(F)cc3c(=O)c(C(=O)O)cn1c23.C[C@H]1COc2c(N3CCN(C)CC3)c(F)cc3c(=O)c(C(=O)O)cn1c23.O [LEVOFLOXACIN] ?
3410 ng·h/mL
